# System under test: T1, phospholipase A2 (PLA2) (Homo sapiens (Human), UniProt O15496 43-165)
# T1 construct: PLA2 as used in Biacore, MCAB binning, peptide scan and the purified-antibody functional assay; also called PLA2 antigen
# T1 sequence: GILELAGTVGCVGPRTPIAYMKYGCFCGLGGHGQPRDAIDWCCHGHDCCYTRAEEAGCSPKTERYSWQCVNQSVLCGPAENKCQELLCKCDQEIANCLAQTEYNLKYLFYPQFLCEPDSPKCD
# Protocol details: Biacore 2000, captured Ab, global 1:1 fit
Endpoint name: koff (s⁻¹)

INSERT INTO measurements (binder, unit_of_measure, test_value) VALUES
  ('anti-PLA2 mAb 2.7 (antibody, IgG4, V domains shown, also called 2.7.1) VH: GVQLVQSGAEVKKPGESLKISCKGSGYSFTNYWIGWVRQMPGKGLEWMGIIYPGDSDTRYSPSFQGQVTISADKSISTAYLQWSSLKASDTAIYYCARGGVGAFDIWGQGTMVTVSS VL: EIVLTQSPGTLSLSPGERATLSCRASQIIRRSSLAWYQEKPGQAPRLLIYGASSRATGIPDRFSGSGSGTDFTLTISRLEPEDFAVYYCQQYGSSPPFTFGPGTKVDIKR', 's⁻¹', 0.00104),
  ('anti-PLA2 mAb 1.5 (antibody, IgG2, V domains shown, also called 1.5.1) VH: EVQLVQSGAEVKKPGESLKISCKGSGYSFISYWIGWVRQMPGKGLEWMGIIYPGDSDTRYSPSFQGQVTISADKSISTAYLQWSSLKASDTAMYYCARHWSYGMDVWGQGTTVTVSS VL: EIVLTQSPGTLSLSPGERATLSCRASQSVRSGYLAWYQQRPGQAPRFLIYGASSRATGIPDRFSGSGSGTDFTLTISRLEPEDFAVYYCQQYGSSPLTFGGGTKVEIKR', 's⁻¹', 0.000713),
  ('anti-PLA2 mAb 1.7 (antibody, IgG2, V domains shown, also called 1.7.1) VH: EVQLVQSGAEVKKPGESLKISCKGSGYSFISYWIGWVRQMPGKGLEWMGIIYPGDSDTRYSPSFQGQVTISADKSISTAYLQWSSLKASDTAMYYCARSWTYALDVWGQGTAVTVSS VL: EIVLTQSPGTLSLSPGERATLSCRPSQSVRSNYLTWYQQKPGQAPRLLIYGASTRATGIPDRFSGSGSGTDFTLTVSRLEPEDFAVYYCQQYGSSPLTFGGGTKVEIKR', 's⁻¹', 0.000451),
  ('anti-PLA2 mAb 1.27 (antibody, IgG2, V domains shown) VH: EVQLVQSGAEVKKPGESLKISCKGSGYSFTSYWIGWVRQMPGKGLEWMGIIYPGDSDTRYSPSFQGQVTISADKSISTAYLQWSSLKASDTAMYYCARSWTYGMDVWGQGTTVTVSS VL: EIVLTQSPGTLSLSPGERATLSCRASQSVRSNYLTWYQQKPGQAPRLLIYGASTRATGIPDRFSGSGSGTDFTLTISRLEPEDFAVYYCQQYGSSPLTFGGGTKVEIKR', 's⁻¹', 0.000922);

Origin of values: patent US20050058649A1
